# measurement target: Human norepinephrine transporter (NET) (Homo sapiens)
# Sequence (P23975 whole entry): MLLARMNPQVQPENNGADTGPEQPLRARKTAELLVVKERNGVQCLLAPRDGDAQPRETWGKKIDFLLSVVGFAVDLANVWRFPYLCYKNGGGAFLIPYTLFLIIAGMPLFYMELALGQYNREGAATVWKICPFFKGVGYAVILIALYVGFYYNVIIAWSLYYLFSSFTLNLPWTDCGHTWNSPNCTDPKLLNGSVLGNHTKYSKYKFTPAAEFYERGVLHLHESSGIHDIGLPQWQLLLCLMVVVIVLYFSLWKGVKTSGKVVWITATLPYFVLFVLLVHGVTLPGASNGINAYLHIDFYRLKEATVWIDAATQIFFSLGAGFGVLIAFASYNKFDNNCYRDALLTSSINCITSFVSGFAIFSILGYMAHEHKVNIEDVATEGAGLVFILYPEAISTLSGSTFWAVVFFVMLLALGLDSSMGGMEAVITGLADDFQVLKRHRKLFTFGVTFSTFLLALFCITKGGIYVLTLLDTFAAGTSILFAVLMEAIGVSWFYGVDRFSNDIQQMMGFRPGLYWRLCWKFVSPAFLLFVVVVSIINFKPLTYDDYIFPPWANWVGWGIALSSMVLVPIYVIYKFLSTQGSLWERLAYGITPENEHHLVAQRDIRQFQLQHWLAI
# procedure details: Binding assay to human norepinephrine transporter (NET), [3H]-Nisoxetin
# condition summary: human NET enriched membranes, 5 nM [3H]-Nisoxetin; read-out: Ki (nM) NET Hum
Ki values, listed per item

Examples from the recorded data:
CNCC[C@@H](c1ccsc1)N1CC(C)(C)c2nc(C)c(F)cc21 [Example 89] :: 100 to 500 nM
CNCC[C@@H](c1cccs1)N1CC(C)(C)c2nc(C)ccc21 [Example 35] :: < 100 nM
CNCC[C@H](c1cccs1)N1CC(C)(C)c2nc(OC)ccc21 [Example 114] :: > 1000 nM
CNCCC(c1cccs1)N1CCCc2ncccc21 (stereo not shown) [Example 5] :: > 1000 nM

Per the records, this compound ( CCc1cnc2c(c1)N([C@H](CCNC)c1cccs1)CC2 [Example 32] ) has Ki equal to 100 to 500 nM

Looking up CNCC[C@@H](c1cc(C)sc1C)N1CCc2ncccc21 [Example 43] , I found its Ki recorded as > 1000 nM

# Ki of CNCC[C@H](c1cccc(F)c1)N1CC(C)(C)c2ncccc21 [Example 85] = > 1000 nM

The compound identified as CNCC[C@@H](c1cccs1)N1CCc2ncc(C(C)C)cc21 [Example 38] registered its Ki at > 1000 nM

For CNCCC(c1ccsc1)N1CCc2ccccc21 (racemic) [Example 78] the compound record lists Ki as < 100 nM

Form field Ki, entry CNCC[C@H](c1cc(C)sc1C)N1CCc2ncccc21 [Example 42] : > 1000 nM
